# System: PPARg DBDmut:RXRa IVT, anti-PPARg (DBD mutation: PPARg1 K132A/R137A, NR concentration 270 nM, RXRa partner concentration 90 nM)
# protocol: PBM binding z-score (relative to random genomic background probes); higher = stronger binding; sequences stand for … in GC…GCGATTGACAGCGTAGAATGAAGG
assayEndpoint: PBM binding z-score
Give the value as a plain number.

ATCTCCAGGTAACCAAGTTCAGTGAATGCCGAAC	0.875
ATCTCTAGGTAACAGGTTCAGTGAAAGAGAGGAC	1.83
CCTACTGGGGCAAAGGTTACCATACTCAGTACGA	3.64
ATCTCTCGGTAAAAGTTCAGTGAATCCCGAGGAT	1.23

Return value of PBM binding z-score for input "TCATATAGGTAAAGGTGAAAATCGAACGATATGA" , no commentary.
1.54

Provide measured PBM binding z-score value, entry: "CAAACTAGGTCACGAAAGCTCAAAGTCGAATGAC"
1.59

Could you please provide reported PBM binding z-score for "CGAACTCGGTCATTGACAGGACAGTGAATAGTAA" ? Thanks!
-0.213

Answer with the recorded PBM binding z-score of "ACTTGCAGGCCAAGTTTGGGTCACTCAAACAAAG" only.
0.338

Complete the entry with PBM binding z-score for "CCTCGGAGGACAACAAGAGGTCAGAGCTGCCAGA"
-1.24

Look up and report measured PBM binding z-score for this entry: "TCTAGTTGGTCACGTAGGTCACACACGACGGGTA"
1.17

Consider the sequence "TTAACAAGGTGAGCTGAGGTCGTTGATCCAACTC" . State its measured PBM binding z-score.
-0.0875

Provide PBM binding z-score value for the following sequence: "CGTCAAAGTTCAACTAAGGTAACGTCAAGCACGC"
0.0665

###

Recorded measurements of PBM binding z-score, one per entry
# System: RARa:RXR (NR concentration 270 nM, RXRa partner concentration 90 nM)
# protocol: PBM binding z-score (relative to random genomic background probes); higher = stronger binding; sequences stand for … in GC…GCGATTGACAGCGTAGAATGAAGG
Enter a number only.

ACTATTAGTTGAGACGAGGGAAACCGATAGGTTG	0.0368
TCATATAGGGAAATGCTAGGTGAAAGTCCGATCT	0.746
ATCTCTAGGTAACAAGTTCAGAGAAAGAGAGGAC	1.1

Annotate the sequence "CGGCCTAGGTCAGGGCCAGTATAGGAGGAACGTT" with its measured PBM binding z-score.
0.858

Return PBM binding z-score (reported value) for this sequence: "CAAACTAGGTGAAAGGTCAAAGTCGAGCCAACCA"
8

Answer with reported PBM binding z-score of "TCATATAGGTAAATCCTAGGTGAAAGTCCGATCT"
1.11

Consider the sequence "TAGCCTGGGTCATTCAGGGGCCAGTATAGAAAGC" . State its measured PBM binding z-score.
3.78

###

# System: PPARa:RXRa (NR concentration 270 nM, RXRa partner concentration 90 nM)
# protocol: PBM binding z-score (relative to random genomic background probes); higher = stronger binding; sequences stand for … in GC…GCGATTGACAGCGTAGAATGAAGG
Mark NOT MET for PBM binding z-score values under 2, and MET for everything at or above.

As a guide, the following entries are already answered.
TCTCGGAGGACACGAAAGGTTAGAGCTCGACATC	NOT MET
ACCATTAGTTGACTTAGGGCAACCGATACGACGC	NOT MET
ACTAGCAGGCCAAGTTTGGGTCACACAAACAAAG	NOT MET
CCTCGGAGGACCGAAGGTCAGAGCTGTCCGCTTT	NOT MET
GCTAGTTAGTCAGTAAAAGGTCACACACCGGTCG	MET
GATGCTAGGTCAGGTTGGTCAGCTAACGGGTACG	NOT MET
GCATATAGGTAATACAACGTGAAAGTCCGATTGT	NOT MET
TCTGCTAGGTGAGTTGGTCAGCTAACGAGCTGCC	NOT MET

Attention now shifts to the item below.
Check if PBM binding z-score >= 2 (inclusive). Item: "TTACTAAGGTGAAAGGTCGTTGATGCACGCCTTG"
MET
